- Test system: RSK4(Kin.Dom.2-C-terminal);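 also: KINOMEscan kinase panel screen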
- Construct: gene RPS6KA6
- condition.details: concentration: 1 μM, replicates: in singlicate; n = 1
quantity: %Inh (%)

{"structure.smiles.string": "COc1ccc(CSc2nnc(-c3ccc4c(c3)CCO4)o2)cc1", "quantity": "%Inh", "value.units": "%", "quantitative.result": 17}
{"structure.smiles.string": "Fc1ccc(-c2nc[nH]c2-c2ccncc2)cc1", "quantity": "%Inh", "value.units": "%", "quantitative.result": 87}
{"structure.smiles.string": "Cn1cncc1-c1cc2c(Nc3ccc(OCc4ccccc4)cc3)ncnc2cn1", "quantity": "%Inh", "value.units": "%", "quantitative.result": 9}
{"structure.smiles.string": "CNc1nc(-c2ccc3c(N)n[nH]c3c2)cc(N2C[C@@H](C(=O)Nc3ccccc3)CC[C@H]2C)n1", "quantity": "%Inh", "value.units": "%", "quantitative.result": 23}
{"structure.smiles.string": "CNc1cc(-c2ccc3c(N)n[nH]c3c2)nc(N)n1", "quantity": "%Inh", "value.units": "%", "quantitative.result": 37}
{"structure.smiles.string": "COc1nccc(-c2c(-c3ccc(F)cc3)ncn2CCCN2CCOCC2)n1", "quantity": "%Inh", "value.units": "%", "quantitative.result": 36}
{"structure.smiles.string": "COc1cccc(C2=C(Nc3cc(Cl)c(O)c(Cl)c3)C(=O)NC2=O)c1", "quantity": "%Inh", "value.units": "%", "quantitative.result": 0}
{"structure.smiles.string": "CS(=O)(=O)Cc1ccc(Nc2nccc(-c3c(-c4cccc(NC(=O)C5CCCCC5)c4)nn4ncccc34)n2)cc1", "quantity": "%Inh", "value.units": "%", "quantitative.result": 9}
{"structure.smiles.string": "CC(=O)c1c(C)c2cnc(Nc3ccn(C)n3)nc2n(C2CCCC2)c1=O", "quantity": "%Inh", "value.units": "%", "quantitative.result": 0}
